Give absorbance at 405 nm after background subtraction for every item shown.
Target: T1, Human MASP-1 (CCP1-CCP2-SP S646A) (human, UniProt P48740 298-699, labelled with NHS-PEG4-Biotin (sites not given))
T1 construct: biotinylated for the ELISAs; also called N-terminally Flag-tagged human MASP-1 (CCP1-CCP2-SP S646A); not shown: N-terminal Flag-tag
T1 sequence: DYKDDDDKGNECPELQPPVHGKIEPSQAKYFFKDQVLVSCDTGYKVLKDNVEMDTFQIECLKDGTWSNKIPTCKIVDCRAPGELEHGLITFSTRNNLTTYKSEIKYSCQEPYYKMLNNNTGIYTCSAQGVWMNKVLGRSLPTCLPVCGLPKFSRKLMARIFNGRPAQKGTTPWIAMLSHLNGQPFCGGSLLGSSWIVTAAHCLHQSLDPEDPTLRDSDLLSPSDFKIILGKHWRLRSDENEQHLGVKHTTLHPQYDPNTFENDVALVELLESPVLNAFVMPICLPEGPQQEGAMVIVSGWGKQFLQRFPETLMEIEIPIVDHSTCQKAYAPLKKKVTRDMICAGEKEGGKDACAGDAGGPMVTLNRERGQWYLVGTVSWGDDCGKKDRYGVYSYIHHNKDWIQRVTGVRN
Assay: ELISA, antibody captured by goat anti-human IgG, 8 nM biotinylated antigen, streptavidin-HRP
Numbers only, in absorbance at 405 nm.

Reference set (2 entries):
MAS0114bb (antibody, human IgG4 S228P, kappa, V domains shown, Rabbit/human chimeric antibody: rabbit variable regions recombined with F760G4 and kOMTC constant regions; also called anti-MASP-1 chimeric mAb MAS0114bb) VH: QSVEESGGRLVTPGTPLTLTCTASGFDINNYAIHWVRQAPGEGLEWIGYIYARSGVTWYASWVKGRFTISKTSTTVDLKMTSLTTEDTATYFCARVLAGGGYANTGLSLWGPGTLVTVSS VL: DIVMTQTPSSVSAAVGGTVTIKCQASQNIGYSSAWYQQKPGQRPKLMIYGASTLASGVPSRFSGSGSGTEYTLTISGVQCDDAATYYCQSNYISSGSVDGTFGGGTKVEIKR: 1.79
MAS0141aa (antibody, human IgG4 S228P, kappa, V domains shown, Rabbit/human chimeric antibody: rabbit variable regions recombined with F760G4 and kOMTC constant regions; also called anti-MASP-1 chimeric mAb MAS0141aa) VH: QSVEESGGRLVTPGTPLTLTCTASGFSLINYYMTWVRQAPGKGLEWIGIINTDGGTYYASWAKGRFTISRTSTTVDLKMTSLTTEDTATYFCARGVFTGGWTGMRTNLWGPGTLVTVSS VL: DVVMTQTPASVEAAVGGTVTIKCQASEDIYILLAWYQQKPGQPPKLLIYAASNLESGVPSRFKGSGSGTEFTLTISDLECADAATYYCQCTYGSSSSNAFGGGTKVEIKR: 1.51

Here is the next item to consider.
Incoming: Given MAS0154dd (antibody, human IgG4 S228P, kappa, V domains shown, Rabbit/human chimeric antibody: rabbit variable regions recombined with F760G4 and kOMTC constant regions; also called anti-MASP-1 chimeric mAb MAS0154dd) VH: QSVEESGGRLVTPGTPLTLTCTVSGFSLSNYNMGWVRQAPGEGLEYIGIISSQGDIYYATWAKGRFTISKTSTTVDLKITSPTTEDTATYFCARARHVGSAADSYFHLWGLGTLVTVSS VL: AVVLTQTASPVSAAVGGTVTINCQASEEIYRNLAWYQQKPGQRPKLLIYGASNLASGVPSRFSGSGSGTEYTLTISDLECADAATYYCQRYAWGKNSADGNTFGGGTKVEIKR , state its recorded absorbance at 405 nm after background subtraction.
Outgoing: 1.95

Recorded values, source patent US20210115154A1.
